This collection of values is drawn from the supplement of paper PMC3334620.

Hi there, I'd appreciate the recorded PBM E-score for every entry that follows.
Biological target: Sut1 (UniProt P53032)
Sequence: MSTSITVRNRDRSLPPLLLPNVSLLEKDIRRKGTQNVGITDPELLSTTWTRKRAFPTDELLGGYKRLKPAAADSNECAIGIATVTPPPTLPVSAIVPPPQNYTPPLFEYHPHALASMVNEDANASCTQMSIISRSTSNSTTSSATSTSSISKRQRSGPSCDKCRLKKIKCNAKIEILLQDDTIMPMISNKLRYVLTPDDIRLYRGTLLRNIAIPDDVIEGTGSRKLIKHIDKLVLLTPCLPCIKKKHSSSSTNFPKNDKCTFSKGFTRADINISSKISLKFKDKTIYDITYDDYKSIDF
Assay: PBM E-score (8-mer binding enrichment) (E-score (-0.5 to 0.5)); higher = stronger / more preferred TF binding
Settings: protein concentration: 200 nM; construct: GST-full length
The full ranking holds about 33,000 sequences; the median of “E-score (-0.5 to 0.5)” is about -0.017, and the highest 2% start at about 0.3. The full list was thinned out, with the highest values kept by preference.

- Residue string: "AGTTTACA"
  Target or test system: "Sut1 (UniProt P53032)"
  Reported metric: "PBM E-score"
  Reading: 0.106
- Residue string: "AGTCTCCA"
  Target or test system: "Sut1 (UniProt P53032)"
  Reported metric: "PBM E-score"
  Reading: -0.229
- Residue string: "CCTCCGAA"
  Target or test system: "Sut1 (UniProt P53032)"
  Reported metric: "PBM E-score"
  Reading: 0.121
- Residue string: "AATCTCCC"
  Target or test system: "Sut1 (UniProt P53032)"
  Reported metric: "PBM E-score"
  Reading: -0.268
- Residue string: "ATTCTCCA"
  Target or test system: "Sut1 (UniProt P53032)"
  Reported metric: "PBM E-score"
  Reading: -0.0299

State recorded PBM E-score for all listed sequences.
1. AATCTCCT
2. AATAGCTC
3. CGTCAACG
4. AGTCTCCC

a:
1. 0.147
2. -0.207
3. 0.0766
4. -0.0841
